Provide the reported viability, T/C of each item.
Tested on: Rh18 complex spheroid viability, percent test/control
method: Anticancer human tumor Rh18 cell line growth inhibition [Asc];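 note: spheroids exposed to compound for 7 days; 100% = DMSO vehicle control wells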
setup_conditions: second compound 10 µM; first compound 0.1 µM; stronger effect = lower value
Numbers only, in %.

- compound: "C#Cc1c(F)ccc2cc(O)cc(-c3ncc4c(N5CC6CCC(C5)N6)nc(OCC56CCCN5CC(F)C6)nc4c3F)c12 (configuration not stated) + Cc1c(S(C)(=O)=O)c(-c2cc(F)cc(N3CCN(c4ccc(NS(=O)(=O)c5ccc(NC(CCN6CCC(C(=O)OCCCP(=O)(O)O)CC6)CSc6ccccc6)c(S(=O)(=O)C(F)(F)F)c5)cc4)CC3)c2)c(-c2ccc(Cl)cc2)n1C(C)C"
  assayed_target: "Rh18 complex spheroid viability, percent test/control"
  units_text: "%"
  viability, T/C: 5.32
- compound: "C=C(F)C(=O)N1CCN(c2nc(OCC3CCCN3C)nc3c2CCN(c2cccc4cccc(Cl)c24)C3)CC1CC#N (configuration not stated) + Cc1c(S(C)(=O)=O)c(-c2cc(F)cc(N3CCN(c4ccc(NS(=O)(=O)c5ccc(NC(CCN6CCC(C(=O)OCCCP(=O)(O)O)CC6)CSc6ccccc6)c(S(=O)(=O)C(F)(F)F)c5)cc4)CC3)c2)c(-c2ccc(Cl)cc2)n1C(C)C"
  assayed_target: "Rh18 complex spheroid viability, percent test/control"
  units_text: "%"
  viability, T/C: 5.5
- compound: "O=C(c1ccc(F)c(F)c1Nc1ccc(I)cc1F)N1CC(O)([C@@H]2CCCCN2)C1 + Cc1c(S(C)(=O)=O)c(-c2cc(F)cc(N3CCN(c4ccc(NS(=O)(=O)c5ccc(NC(CCN6CCC(C(=O)OCCCP(=O)(O)O)CC6)CSc6ccccc6)c(S(=O)(=O)C(F)(F)F)c5)cc4)CC3)c2)c(-c2ccc(Cl)cc2)n1C(C)C"
  assayed_target: "Rh18 complex spheroid viability, percent test/control"
  units_text: "%"
  viability, T/C: 2.53
- compound: "O=C(c1cc(Cc2n[nH]c(=O)c3ccccc23)ccc1F)N1CCN(C(=O)C2CC2)CC1 + Cc1c(S(C)(=O)=O)c(-c2cc(F)cc(N3CCN(c4ccc(NS(=O)(=O)c5ccc(NC(CCN6CCC(C(=O)OCCCP(=O)(O)O)CC6)CSc6ccccc6)c(S(=O)(=O)C(F)(F)F)c5)cc4)CC3)c2)c(-c2ccc(Cl)cc2)n1C(C)C"
  assayed_target: "Rh18 complex spheroid viability, percent test/control"
  units_text: "%"
  viability, T/C: 4.61
- compound: "CCN1CCN(Cc2ccc(Nc3ncc(F)c(-c4cc(F)c5nc(C)n(C(C)C)c5c4)n3)nc2)CC1 + Cc1c(S(C)(=O)=O)c(-c2cc(F)cc(N3CCN(c4ccc(NS(=O)(=O)c5ccc(NC(CCN6CCC(C(=O)OCCCP(=O)(O)O)CC6)CSc6ccccc6)c(S(=O)(=O)C(F)(F)F)c5)cc4)CC3)c2)c(-c2ccc(Cl)cc2)n1C(C)C"
  assayed_target: "Rh18 complex spheroid viability, percent test/control"
  units_text: "%"
  viability, T/C: 7.08
- compound: "NC1CCC(NC2CC2c2ccccc2)CC1 (configuration not stated) + Cc1c(S(C)(=O)=O)c(-c2cc(F)cc(N3CCN(c4ccc(NS(=O)(=O)c5ccc(NC(CCN6CCC(C(=O)OCCCP(=O)(O)O)CC6)CSc6ccccc6)c(S(=O)(=O)C(F)(F)F)c5)cc4)CC3)c2)c(-c2ccc(Cl)cc2)n1C(C)C"
  assayed_target: "Rh18 complex spheroid viability, percent test/control"
  units_text: "%"
  viability, T/C: 2.07

Consider the additional compound presented here.
Item Cn1ncnc1[C@H]1c2n[nH]c(=O)c3cc(F)cc(c23)N[C@@H]1c1ccc(F)cc1 + Cc1c(S(C)(=O)=O)c(-c2cc(F)cc(N3CCN(c4ccc(NS(=O)(=O)c5ccc(NC(CCN6CCC(C(=O)OCCCP(=O)(O)O)CC6)CSc6ccccc6)c(S(=O)(=O)C(F)(F)F)c5)cc4)CC3)c2)c(-c2ccc(Cl)cc2)n1C(C)C was tested on Rh18 complex spheroid viability, percent test/control; the reported viability, T/C is 9.69

Hey, just so you know, these numbers are from PubChem BioAssay AID1963431.
